TARGET: C1b domain of human PKD1 (PKCμ) (Homo sapiens, UniProt Q15139)
Construct: Genes encoding C1b domains of human PKCα, δ, ε, θ, and PKD1 (PKCμ) were synthesized; made in house; host or cells: E. coli BL21(DE3)
Sequence (Q15139 270-320 limits assumed): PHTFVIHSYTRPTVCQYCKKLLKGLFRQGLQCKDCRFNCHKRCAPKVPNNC
EXPERIMENTAL DETAILS: biochemical
Format: binding
pKi: −log10 of the molar value.
ENDPOINT: pKi

Observe how each entry below is paired with its result.
INSERT INTO results (compound, reported_result) VALUES
  ('CC1=C[C@H]2[C@@]3(O)[C@H](C)C[C@]4(OC(=O)CCCCCCCCCCC(=O)O)[C@H]([C@@H]3C=C(CO)C[C@]2(O)C1=O)C4(C)C [Compound K101-C1334]', '7.22 to 7.52'),
  ('CC1=C[C@H]2[C@@]3(O)[C@H](C)C[C@]4(OC(=O)CCc5scnc5C)[C@H]([C@@H]3C=C(CO)C[C@]2(O)C1=O)C4(C)C [Compound K101-C1320]', '7.52 to 9.00');

Let us move to another entry and its pKi.
The value of pKi measured for the compound CC1=C[C@H]2[C@@]3(O)[C@H](C)C[C@]4(OC(=O)[C@H](N)CCCc5ccccc5)[C@H]([C@@H]3C=C(CO)C[C@]2(O)C1=O)C4(C)C [Compound K101-C1351] turned out to be 7.52 to 9.00

Reference source: patent US20220411362A1
